protocol.notes: Biodistribution of 68Ga-labeled peptide in mice bearing B16F10 mouse melanoma
Format: in vivo, C57BL/6J mice
condition.context: C57BL/6J, spleen, iv, with BMS 470539 (MC1R-specific inhibitor), 0.5 mg co-injected, total radioactivity, 1 h p.i. blocked, co-injection of 0.5 mg BMS 470539, read-out: Biodistribution, Spleen
recorded.endpoint: tissue uptake at 1 h (%ID/g)
Lab book: enter the figure in %ID/g, no units written.

For the compound shown here, CCCC[C@H](NC(=O)CN1CCC(NC(=O)CN2CCN(CC(=O)O)CCN(CC(=O)O)CCN(CC(=O)O)CC2)CC1)C(=O)N[C@H]1CC(=O)NCCCC[C@@H](C(N)=O)N(C)C(=O)[C@H](Cc2c[nH]c3ccccc23)N(C)C(=O)[C@H](CCCNC(=N)N)N(C)C(=O)[C@@H](Cc2ccccc2)NC(=O)[C@H](Cc2c[nH]cn2)N(C)C1=O [^68Ga-labeled CCZ01099, metal not drawn] , give the reported tissue uptake at 1 h.
0.52

---

protocol.notes: Biodistribution of 177Lu-labeled αMSH analogues in mice bearing B16F10 mouse melanoma
Type: in vivo, C57BL/6J mice
condition.context: mouse, tumour/muscle, iv, total radioactivity; 120 h p.i., C57BL/6J mice, B16F10 melanoma; read-out: Tumour/muscle
recorded.endpoint: tissue to tissue ratio at 120 h
Give a plain numeric answer without units written out.

These solved cases illustrate the format of a correct answer.
>  <molecule>
CCCC[C@H](NC(=O)CN1CCC(NC(=O)CN2CCN(CC(=O)O)CCN(CC(=O)O)CCN(CC(=O)O)CC2)CC1)C(=O)N[C@H]1CC(=O)NCCCC[C@@H](C(N)=O)NC(=O)[C@H](Cc2c[nH]c3ccccc23)NC(=O)[C@H](CCCNC(=N)N)NC(=O)[C@@H](Cc2ccccc2)NC(=O)[C@H](Cc2c[nH]cn2)NC1=O [^177Lu-labeled CCZ01048, metal not drawn, reference compound]

>  <reported.result>
80.9

$$$$
>  <molecule>
CCCC[C@H](NC(=O)CN1CCC(NC(=O)[C@H](CCCCNC(=O)CN2CCN(CC(=O)O)CCN(CC(=O)O)CCN(CC(=O)O)CC2)NC(=O)[C@H](CCC(=O)O)NC(=O)CCCc2ccc(I)cc2)CC1)C(=O)N[C@H]1CC(=O)NCCCC[C@@H](C(N)=O)N(C)C(=O)[C@H](Cc2c[nH]c3ccccc23)N(C)C(=O)[C@H](CCCNC(=N)N)N(C)C(=O)[C@@H](Cc2ccccc2)NC(=O)[C@H](Cc2c[nH]cn2)N(C)C1=O [^177Lu-labeled CCZ01088, metal not drawn]

>  <reported.result>
35.6

$$$$
>  <molecule>
CCCC[C@H](NC(=O)CN1CCC(NC(=O)[C@H](CCCCNC(=O)CN2CCN(CC(=O)O)CCN(CC(=O)O)CCN(CC(=O)O)CC2)NC(=O)[C@H](CCC(=O)O)NC(=O)CCCc2ccc(I)cc2)CC1)C(=O)N[C@H]1CC(=O)NCCCC[C@@H](C(N)=O)N(C)C(=O)[C@H](Cc2c[nH]c3ccccc23)NC(=O)[C@H](CCCNC(=N)N)N(C)C(=O)[C@@H](Cc2ccccc2)NC(=O)[C@H](Cc2c[nH]cn2)NC1=O [^177Lu-labeled CCZ01118, metal not drawn]

>  <reported.result>
173

$$$$
>  <molecule>
CCCC[C@H](NC(=O)CN1CCC(NC(=O)[C@H](CCCCNC(=O)CN2CCN(CC(=O)O)CCN(CC(=O)O)CCN(CC(=O)O)CC2)NC(=O)[C@H](CCC(=O)O)NC(=O)CCCc2ccc(I)cc2)CC1)C(=O)N[C@H]1CC(=O)NCCCC[C@@H](C(N)=O)NC(=O)[C@H](Cc2c[nH]c3ccccc23)NC(=O)[C@H](CCCNC(=N)N)NC(=O)[C@@H](Cc2ccccc2)NC(=O)[C@H](Cc2c[nH]cn2)NC1=O [^177Lu-labeled CCZ01082, metal not drawn]

>  <reported.result>
38.9

$$$$

With those in mind, consider the next molecule.
Sample CCCC[C@H](NC(=O)CN1CCC(NC(=O)CN2CCN(CC(=O)O)CCN(CC(=O)O)CCN(CC(=O)O)CC2)CC1)C(=O)N[C@H]1CC(=O)NCCCC[C@@H](C(N)=O)N(C)C(=O)[C@H](Cc2c[nH]c3ccccc23)NC(=O)[C@H](CCCNC(=N)N)N(C)C(=O)[C@@H](Cc2ccccc2)NC(=O)[C@H](Cc2c[nH]cn2)NC1=O [^177Lu-labeled CCZ01106, metal not drawn] — what was its tissue to tissue ratio at 120 h?
117
